Could you please report measured HEMATOCRIT for the items listed next?
species on record: Rattus norvegicus; test: DrugMatrix - Regimen: Daily Repeat; assay type: toxicity, organism-based, Sprague-Dawley; design: regimen Daily Repeat, gender Male, age 6-8 weeks; settings: in vivo, po, 100 mg/kg, 72 h, tissue Blood, route oral GAVAGE, dose level Low, time 3 day, vehicle .5 % CMC
Give bare numbers, in %.

Some entries whose results are on file:
CC[C@]1(O)CC[C@H]2[C@@H]3CCC4=CCCC[C@@H]4[C@H]3CC[C@@]21C; 43.57
Nc1nc2c(c(=O)[nH]1)N(C=O)C(CNc1ccc(C(=O)N[C@@H](CCC(=O)O)C(=O)O)cc1)CN2 (some centres undefined); 35.97
CC=Cc1ccc(O)c(OC)c1; 36.7

Query: Name the recorded HEMATOCRIT for C#C[C@]1(O)CC[C@H]2[C@@H]3CCC4=Cc5oncc5C[C@]4(C)[C@H]3CC[C@@]21C .
Result: 34.17

* * *

species on record: Rattus norvegicus; experiment: DrugMatrix - Regimen: Daily Repeat; format: toxicity, organism-based, Sprague-Dawley; parameters: regimen Daily Repeat, gender Male, age 6-8 weeks; conditions: in vivo, po, 1500 mg/kg, 120 h, tissue Plasma, route oral GAVAGE, dose level High, time 5 day, vehicle .5 % CMC
Could you please report measured CARBON DIOXIDE for the items listed next?
Answers are plain numbers, in mmol/L.

Nc1nc2c(c(=O)[nH]1)N(C=O)C(CNc1ccc(C(=O)N[C@@H](CCC(=O)O)C(=O)O)cc1)CN2 (some centres undefined); 36

Batch lookup, CARBON DIOXIDE per entry.
1. CC(C)(Sc1cc(C(C)(C)C)c(O)c(C(C)(C)C)c1)Sc1cc(C(C)(C)C)c(O)c(C(C)(C)C)c1
2. C[C@@H](O)[C@H]1C(=O)N2C(C(=O)O)=C(S[C@@H]3CN[C@H](C(=O)N(C)C)C3)[C@H](C)[C@H]12
3. CCOC(=O)[C@H](CCc1ccccc1)N[C@@H](C)C(=O)N1CCC[C@H]1C(=O)O

Result:
[26.33, 28.33, 25.33]

* * *

species on record: Rattus norvegicus; assay: DrugMatrix - Regimen: Daily Repeat; type: toxicity, organism-based, Sprague-Dawley; set-up: regimen Daily Repeat, gender Male, age 6-8 weeks; details: in vivo, po, 0 mg/kg, 120 h, tissue Blood, route oral GAVAGE, dose level Control, time 5 day, […]
Could you please report measured PLATELET COUNT for the items listed next?
Answers are plain numbers, in x10E3/uL.

CC(C)Cc1ccc(CC(=O)O)cc1; 1081.33
CC(C)OC(=O)C(C)(C)Oc1ccc(C(=O)c2ccc(Cl)cc2)cc1 [FENOFIBRATE]; 807.17
COc1ncnc(NS(=O)(=O)c2ccc(N)cc2)c1OC; 1077.5
C#C[C@]1(O)CC[C@H]2[C@@H]3CCc4cc(O)ccc4[C@H]3CC[C@@]21C; 1142.67

Batch lookup, PLATELET COUNT per entry.
1. CC[C@H](C)C(=O)O[C@H]1C[C@@H](C)C=C2C=C[C@H](C)[C@H](CC[C@@H]3C[C@@H](O)CC(=O)O3)[C@H]21
2. CC(=O)Nc1nnc(S(N)(=O)=O)s1 [ACETAZOLAMIDE]
3. OCCN1CCN(CCCN2c3ccccc3Sc3ccc(C(F)(F)F)cc32)CC1
4. CN(CCOc1ccc(CC2SC(=O)NC2=O)cc1)c1ccccn1 (stereo not given)
5. CC(CCc1ccc(O)cc1)NCCc1ccc(O)c(O)c1 (stereo not given)
6. CCn1cc(C(=O)O)c(=O)c2cc(F)c(N3CCNCC3)nc21

Result:
1: 1190; 2: 1077.5; 3: 1052.67; 4: 1231.5; 5: 1056.67; 6: 1142.67
